molecular target: human B1 receptor (Homo sapiens, UniProt P46663); construct: host or cells: CHO-K1; experiment: Calcium flux assay (FLIPR) with recombinant CHO-K1 cells expressing human B1 receptor; type: cell-based; conditions: absence of 0.1% BSA in assay buffer, read-out: hB1 free IC50
measured-metric: pIC50
Expect pIC50 as a plain number equal to -log10 of the molar concentration.

The following compounds have reported results that may help.
CCOc1ccc(-c2cc(O)c(NC(=O)C3CC3c3cccc(C)c3)cc2-c2nnn[nH]2)cn1 (racemic): 8.52
COc1ccc(-c2ccc(NC(=O)C3CC3c3cccc(C)c3)cc2-c2nnn[nH]2)cc1OC (racemic): 8.22
CC(C)(C)c1ccn(-c2ccc(NC(=O)C3CC3c3ccc(Cl)cc3)cc2-c2nnn[nH]2)n1 (racemic): 6.33

Find the recorded pIC50 belonging to CCOc1ccc(-c2cc(C)c(NC(=O)C3CC3c3ccc(Cl)cc3)cc2-c2nnn[nH]2)cn1 (racemic) and report it. 7.82

Find the recorded pIC50 belonging to O=C(Nc1ccc(-c2ccc(C(F)(F)F)nc2)c(-c2nnn[nH]2)c1)C1CC1c1ccccc1 (racemic) and report it. 6.29

Find the recorded pIC50 belonging to CCOc1ccc(-c2ccc(NC(=O)C3(C)CC3c3ccccc3)cc2-c2nnn[nH]2)cn1 (racemic) and report it. 7.85

Find the recorded pIC50 belonging to O=C(Nc1ccc(-c2ccc(C(F)(F)F)nc2)c(-c2nnn[nH]2)c1)C1CC1c1ccc(Cl)cc1 (racemic) and report it. 7.15

###

molecular target: human B1 receptor (Homo sapiens); construct: host or cells: CHO-K1; assay: Calcium flux assay (FLIPR) with recombinant CHO-K1 cells expressing human B1 receptor; type: cell-based; settings: presence of 0.1% BSA in assay buffer, read-out: hB1 IC50
measured-metric: log10 of IC50 (log10 of the value in nM)
Values are log10 of IC50 in nM.

COc1ccc(-c2cc(F)c(NC(=O)C3CC3c3cccc(C)c3)cc2-c2nnn[nH]2)cc1 (racemic) [Example 55]: 1.00
COc1cncc(-c2ccc(NC(=O)C3CC3c3ccc(Cl)cc3)cc2-c2nnn[nH]2)c1 (racemic) [Example 26]: 2.57
COCc1ccc(-c2ccc(NC(=O)C3CC3C3CCCCC3)cc2-c2nnn[nH]2)cc1C (racemic) [Example 33]: 1.45
COc1ccc(-c2ccc(NC(=O)C3CC3c3ccccc3C)cc2-c2nnn[nH]2)cc1OC (racemic) [Example 4]: 1.43

We now examine a further compound.
Find the recorded log10 of IC50 belonging to COc1cncc(-c2ccc(NC(=O)C3CC3C3CCCCC3)cc2-c2nnn[nH]2)c1 (racemic) [Example 24] and report it. 2.49

###

Target: human B1 receptor (Homo sapiens, UniProt P46663)
Construct: host or cells: CHO-K1
Sequence (P46663 1-353): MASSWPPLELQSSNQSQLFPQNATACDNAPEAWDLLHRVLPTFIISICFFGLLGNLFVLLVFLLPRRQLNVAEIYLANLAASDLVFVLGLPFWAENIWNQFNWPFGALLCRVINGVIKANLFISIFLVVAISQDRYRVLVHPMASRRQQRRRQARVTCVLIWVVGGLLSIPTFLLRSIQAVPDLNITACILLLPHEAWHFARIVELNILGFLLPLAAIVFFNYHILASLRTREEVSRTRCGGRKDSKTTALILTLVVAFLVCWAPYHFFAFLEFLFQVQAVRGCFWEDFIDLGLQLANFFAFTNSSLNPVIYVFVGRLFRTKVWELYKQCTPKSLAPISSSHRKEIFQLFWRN
Test: Calcium flux assay (FLIPR) with recombinant CHO-K1 cells expressing human B1 receptor
Format: cell-based
Conditions: absence of 0.1% BSA in assay buffer, read-out: hB1 free IC50
Doc: threshold 0.5 µM (exclusive). Items with IC50 beneath it return true; others return false.

COc1ccc(-c2ccc(NC(=O)C3CC3c3ccccc3C)cc2-c2nnn[nH]2)cc1OC (racemic): true
CCOc1ccc(-c2ccc(NC(=O)C3CC3c3ccc(Cl)cc3)cc2-c2nnn[nH]2)cn1 (racemic): true

Criterion: IC50 strictly below 0.5 µM. Is it met by Cc1cccc(C2CC2C(=O)Nc2cc(-c3nnn[nH]3)c(-c3ccc(C(F)(F)F)nc3)cc2C)c1 (racemic) ? true

Criterion: IC50 strictly below 0.5 µM. Is it met by CCOc1ccc(-c2ccc(NC(=O)C3CC3c3cnn(C)c3)cc2-c2nnn[nH]2)cn1 (racemic) ? false

Criterion: IC50 strictly below 0.5 µM. Is it met by Cn1cc(-c2ccc(NC(=O)C3CC3c3ccc(Cl)cc3)cc2-c2nnn[nH]2)cn1 (racemic) ? false

Criterion: IC50 strictly below 0.5 µM. Is it met by CCOc1ncc(-c2ccc(NC(=O)C3CC3c3ccc(Cl)cc3)cc2-c2nnn[nH]2)cn1 (racemic) ? true

###

target: human B1 receptor (Homo sapiens, UniProt P46663); construct: host or cells: CHO-K1; test: Calcium flux assay (FLIPR) with recombinant CHO-K1 cells expressing human B1 receptor; type: cell-based; settings: presence of 0.1% BSA in assay buffer, read-out: hB1 IC50
measured-metric: log10 of IC50 (log10 of the value in nM)
Values are log10 of IC50 in nM.

CCOc1ccc(-c2ccc(NC(=O)C3CC3c3cccc(C)c3)cc2-c2nnn[nH]2)cn1 (racemic) [Example 18]: 1.18
Cc1cccc(C2CC2C(=O)Nc2ccc(-c3ccc(OC(C)C)nc3)c(-c3nnn[nH]3)c2)c1 (racemic) [Example 78]: 1.00
COc1ccc(-c2cc(C)c(NC(=O)C3CC3c3ccc(Cl)cc3)cc2-c2nnn[nH]2)cc1OC (racemic) [Example 66]: 2.45
CCOc1ccc(-c2cc(C)c(NC(=O)C3CC3c3ccc(Cl)cc3)cc2-c2nnn[nH]2)cn1 (racemic) [Example 64]: 1.57
O=C(Nc1ccc(-c2ccc(C(F)(F)F)nc2)c(-c2nnn[nH]2)c1)C1CC1c1ccc(Cl)cc1 (racemic) [Example 79]: 3.81
O=C(Nc1cc(-c2nnn[nH]2)c(-c2ccc(C(F)(F)F)nc2)cc1O)C1CC1c1ccc(Cl)cc1 (centres unmarked) [Example 83]: 2.68
COCc1ccc(-c2ccc(NC(=O)C3CC3c3ccc(Cl)cc3)cc2-c2nnn[nH]2)cc1C (racemic) [Example 32]: 1.34
CCOc1ccc(-c2cc(C)c(NC(=O)C3CC3c3cccc(C)c3)cc2-c2nnn[nH]2)cn1 (racemic) [Example 63]: 1.38

Find the recorded log10 of IC50 belonging to COc1ccc(-c2ccc(NC(=O)C3CC3c3ccccc3OC(F)(F)F)cc2-c2nnn[nH]2)cc1OC (racemic) [Example 6] and report it. 1.30

Find the recorded log10 of IC50 belonging to COc1ccc(-c2cc(C)c(NC(=O)C3CC3C3CCCCC3)cc2-c2nnn[nH]2)cc1C (racemic) [Example 74] and report it. 2.48

Find the recorded log10 of IC50 belonging to CCOc1ccc(-c2ccc(NC(=O)C3(C)CC3c3ccccc3)cc2-c2nnn[nH]2)cn1 (racemic) [Example 21] and report it. 1.34

###

Target: human B1 receptor (Homo sapiens, UniProt P46663)
Construct: host or cells: CHO-K1
Test: Calcium flux assay (FLIPR) with recombinant CHO-K1 cells expressing human B1 receptor
Type: cell-based
Conditions: presence of 0.1% BSA in assay buffer, read-out: hB1 IC50
Experimental: The potency to inhibit the Bradykinin B1 receptors was determined for the example compounds of this invention in a cell-based fluorescent calcium-mobilisation assay. […] The change of the intracellular Ca^2+ concentration is monitored with a fluorescent plate reader FLIPR (Molecular Devices). […] Peak fluorescence was used to determine the response to agonist obtained at each concentration of example compound by the following equation: […]
measured-metric: IC50 (nM)
Please respond with the number in nM and leave the unit unwritten.

The following compounds have reported results that may help.
CCOc1ccc(-c2cc(C)c(NC(=O)C3CC3c3cccc(C)c3)cc2-c2nnn[nH]2)cc1OC (racemic) [Example 72]: 38
COCc1ccc(-c2ccc(NC(=O)C3CC3c3ccc(Cl)cc3)cc2-c2nnn[nH]2)cc1 (racemic) [Example 38]: 1470
COc1ccc(-c2ccc(NC(=O)C3CC3c3ccc(Cl)cc3)cc2-c2nnn[nH]2)cc1Cl (racemic) [Example 39]: 1230
COc1ccc(-c2cc(C)c(NC(=O)C3CC3C3CCCCC3)cc2-c2nnn[nH]2)cc1OC (racemic) [Example 67]: 430
CCOc1ccc(-c2cc(O)c(NC(=O)C3CC3c3ccc(Cl)cc3)cc2-c2nnn[nH]2)cn1 (single isomer, unassigned) [Example 50]: 24
COc1ccc(-c2ccc(NC(=O)C3CC3C3CCCCC3)cc2-c2nnn[nH]2)cc1Cl (racemic) [Example 40]: 1030

We now examine a further compound.
Notebook: pull reported IC50 for human B1 receptor (Homo sapiens, UniProt P46663), entry CCOc1ccc(-c2ccc(NC(=O)C3CC3c3ccc(F)cc3)cc2-c2nnn[nH]2)cn1 (racemic) [Example 16] 15

Source: patent US20190194148A1
